The measured values listed here are drawn from patent US8461149B2.

This listing pairs molecules with measured Ki.
Molecular target: PLK1 (Homo sapiens)
Experiment: PLK1 inhibition assay (radioactive-phosphate incorporation)
Format: biochemical
Conditions: 150 μM ATP, 300 μM peptide, 4 nM PLK1, 90 minutes, 25° C., read-out: Ki in the radioactive incorporation assay (Ki(app))

Summary line: "COc1cc(C(=O)NC2CC2)ccc1Nc1ncc2c(n1)N([C@@H]1CCC(F)(F)C1)CC1(CC1)C(=O)N2C" , PLK1 (Homo sapiens), reported Ki = 1 to 10 nM

Summary line: "COc1cc(C(=O)N[C@@H]2CCC(F)(F)C2)ccc1Nc1ncc2c(n1)N([C@@H]1CCC(F)(F)C1)CC1(CC1)C(=O)N2C" , PLK1 (Homo sapiens), reported Ki = 1 to 10 nM

Summary line: "COc1cc(C(=O)NC2CC2)ccc1Nc1ncc2c(n1)N([C@@H]1CCC(F)(F)C1)CC(C)(C)C(=O)N2C" , PLK1 (Homo sapiens), reported Ki = 1 to 10 nM

----------
Target: PLK1 (Homo sapiens, UniProt P53350)
Sequence (P53350 whole entry): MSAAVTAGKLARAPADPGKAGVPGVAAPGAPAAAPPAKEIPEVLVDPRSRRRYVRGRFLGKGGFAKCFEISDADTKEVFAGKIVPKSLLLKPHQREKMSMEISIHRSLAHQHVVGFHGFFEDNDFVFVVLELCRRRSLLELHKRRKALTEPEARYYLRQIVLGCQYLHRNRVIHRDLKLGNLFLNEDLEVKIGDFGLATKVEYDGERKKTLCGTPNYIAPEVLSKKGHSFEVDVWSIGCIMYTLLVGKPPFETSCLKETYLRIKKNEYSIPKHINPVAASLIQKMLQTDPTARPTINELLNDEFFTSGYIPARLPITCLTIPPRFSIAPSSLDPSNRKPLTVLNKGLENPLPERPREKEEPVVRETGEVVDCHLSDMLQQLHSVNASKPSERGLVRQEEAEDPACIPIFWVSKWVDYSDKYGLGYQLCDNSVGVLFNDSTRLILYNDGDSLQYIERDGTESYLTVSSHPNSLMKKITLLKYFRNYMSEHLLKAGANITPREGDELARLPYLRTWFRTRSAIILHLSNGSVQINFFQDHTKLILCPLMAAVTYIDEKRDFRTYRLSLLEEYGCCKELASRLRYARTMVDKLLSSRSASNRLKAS
Test: PLK1 inhibition assay (radioactive-phosphate incorporation)
Type: biochemical
Settings: conditions for values of less than 1 nM: 350 μM ATP, 450 μM peptide, 1 nM PLK1, 240 minutes, 25° C., read-out: Ki in the radioactive incorporation assay (Ki(app))
This listing pairs compounds with measured Ki.

Example compounds with recorded Ki:
CCNC(=O)c1ccc(Nc2ncc3c(n2)N([C@@H]2CCC(F)(F)C2)[C@H](CC)c2nncn2-3)c(OC)c1 = < 1 nM
COc1cc(C(=O)N[C@@H]2CCC(F)(F)C2)ccc1Nc1ncc2c(n1)N([C@@H]1CCC(F)(F)C1)CC(C)(C)C(=O)N2C = < 1 nM

Here's the next entry for you.
Consider "COc1cc(C(=O)N[C@@H]2CC[C@@H](F)C2)ccc1Nc1ncc2c(n1)N([C@@H]1CCC(F)(F)C1)CC(C)(C)C(=O)N2C" . Its measured Ki is < 1 nM
